assay: in vitro; conditions: rat, gh3-tre-luc cells, AC50 (uM) modified / 1000
Where a name gives a salt, the structure may show the parent alone.
propertyMeasured: CC50 at 24 h

stdin: Find the recorded CC50 at 24 h belonging to CC(C)(C)NCC(O)c1ccc(O)c(CO)n1 (centres unmarked) [Pirbuterol hydrochloride] and report it.
stdout: > 50 µM

* * *

test system: GH3-TRE-Luc cell line; conditions: read-out: AC50 (uM) modified / 1000; Tox21_110001=Tox21_300117; viability, 1 nM T3 present, 24 h
propertyMeasured: CC50 (µM)
API: value field is a number in µM; no unit string.

stdin: Find the recorded CC50 belonging to "O=[N+]([O-])c1ccc(O)cc1" and report it.
stdout: 67.6
